Tested on: WHIM2 (cells of a triple-negative basal-like breast cancer xenograft);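 also: PDX cells carrying CMV promoter-driven luciferase, viability read as total photon flux per second by IVIS imaging following D-luciferin, vehicle control 0.1% DMSO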
Test: cell viability (% of vehicle); higher = less cytotoxic
Settings: 10 µM; 72 h
Task for the reader: assign each of the following compounds its reported cell viability.
Quick one: just the number, no unit, thanks!

Request: Quick check: cell viability on WHIM2, item O=C(O)CCNC(=O)c1ccccc1 [Betamipron] ?
Result: 101

Request: Quick check: cell viability on WHIM2, item O=C(NS(=O)(=O)c1ccc(Br)s1)c1ccc(Cl)cc1Cl [Tasisulam] ?
Result: 167

Request: Quick check: cell viability on WHIM2, item O=C(Oc1ccccc1C(=O)O)c1ccccc1O [Sasapyrine] ?
Result: 123

Request: Quick check: cell viability on WHIM2, item O=S(=O)([O-])Oc1ccc(C(c2ccc(OS(=O)(=O)[O-])cc2)c2ccccn2)cc1.[Na+].[Na+] [Sodium Picosulfate] ?
Result: 91.2
